B1: H2-Kb / B13 (parent)
chain 1: AQKVTQTQTSISVMEKTTVTMDCVYETQDSSYFLFWYKQTASGEIVFLIRQDSYKKENATVGHYSLNFQKPKSSIGLIITATQIEDSAVYFCAMREGTGGYKVVFGSGTRLLVSP
chain 2: EAAVTQSPRNKVTVTGGNVTLSCRQTNSHNYMYWYRQDTGHGLRLIHYSYGAGNLQIGDVPDGYKATRTTQEDFFLLLELASPSQTSLYFCASSDGTGHEQYFGPGTRLTVL
chain 3: not shown
chain 4: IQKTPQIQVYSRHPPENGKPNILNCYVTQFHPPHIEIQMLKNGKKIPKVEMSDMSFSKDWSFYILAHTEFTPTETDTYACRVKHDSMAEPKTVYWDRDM
chain 5: SIINFEKL

Variants of: B1
Assay: % of reporter cells activated (NFAT-GFP), raw; note: test concentration or dose not given here
Conditions: with B13; scale: % of reporter cells activated
Values of ratio to parent strictly less than 1 map to yes, and values of at least 1 map to no.

MUTATION_LABEL: chain 5 I3P
LABEL_CLASS: no

MUTATION_LABEL: chain 5 S1L
LABEL_CLASS: yes

MUTATION_LABEL: chain 5 K7W
LABEL_CLASS: no

MUTATION_LABEL: chain 5 I3N
LABEL_CLASS: no

MUTATION_LABEL: chain 5 F5E
LABEL_CLASS: yes

MUTATION_LABEL: chain 5 L8W
LABEL_CLASS: yes

MUTATION_LABEL: chain 5 E6W
LABEL_CLASS: yes

MUTATION_LABEL: chain 5 S1Q
LABEL_CLASS: yes

MUTATION_LABEL: chain 5 I2T
LABEL_CLASS: no

MUTATION_LABEL: chain 5 N4H
LABEL_CLASS: yes

MUTATION_LABEL: chain 5 L8P
LABEL_CLASS: no

MUTATION_LABEL: chain 5 K7L
LABEL_CLASS: no

MUTATION_LABEL: chain 5 E6Y
LABEL_CLASS: yes

MUTATION_LABEL: chain 5 I3K
LABEL_CLASS: yes

MUTATION_LABEL: chain 5 E6T
LABEL_CLASS: yes

MUTATION_LABEL: chain 5 F5D
LABEL_CLASS: yes

MUTATION_LABEL: chain 5 I3H
LABEL_CLASS: no

MUTATION_LABEL: chain 5 E6K
LABEL_CLASS: yes

MUTATION_LABEL: chain 5 N4G
LABEL_CLASS: yes

MUTATION_LABEL: chain 5 L8F
LABEL_CLASS: yes

MUTATION_LABEL: chain 5 S1N
LABEL_CLASS: yes

MUTATION_LABEL: chain 5 S1R
LABEL_CLASS: no

MUTATION_LABEL: chain 5 L8V
LABEL_CLASS: yes

MUTATION_LABEL: chain 5 N4R
LABEL_CLASS: yes

MUTATION_LABEL: chain 5 K7M
LABEL_CLASS: no

MUTATION_LABEL: chain 5 K7H
LABEL_CLASS: yes

MUTATION_LABEL: chain 5 I3G
LABEL_CLASS: no

MUTATION_LABEL: chain 5 L8C
LABEL_CLASS: no

MUTATION_LABEL: chain 5 S1F
LABEL_CLASS: yes

MUTATION_LABEL: chain 5 N4D
LABEL_CLASS: yes

MUTATION_LABEL: chain 5 I3F
LABEL_CLASS: yes

MUTATION_LABEL: chain 5 I3S
LABEL_CLASS: no

MUTATION_LABEL: chain 5 E6A
LABEL_CLASS: yes

MUTATION_LABEL: chain 5 L8R
LABEL_CLASS: no

MUTATION_LABEL: chain 5 F5C
LABEL_CLASS: yes

MUTATION_LABEL: chain 5 S1P
LABEL_CLASS: yes

MUTATION_LABEL: chain 5 I2N
LABEL_CLASS: yes

MUTATION_LABEL: chain 5 F5V
LABEL_CLASS: yes

MUTATION_LABEL: chain 5 F5K
LABEL_CLASS: yes

MUTATION_LABEL: chain 5 E6L
LABEL_CLASS: yes

MUTATION_LABEL: chain 5 F5Y
LABEL_CLASS: yes

MUTATION_LABEL: chain 5 S1D
LABEL_CLASS: yes

MUTATION_LABEL: chain 5 F5L
LABEL_CLASS: yes

MUTATION_LABEL: chain 5 N4M
LABEL_CLASS: yes

MUTATION_LABEL: chain 5 L8H
LABEL_CLASS: yes
